Consider the following compounds; for each one, report its pKi.
Target: Gonadotropin-releasing hormone receptor (Rattus norvegicus, UniProt P30969)
Sequence (P30969 whole entry): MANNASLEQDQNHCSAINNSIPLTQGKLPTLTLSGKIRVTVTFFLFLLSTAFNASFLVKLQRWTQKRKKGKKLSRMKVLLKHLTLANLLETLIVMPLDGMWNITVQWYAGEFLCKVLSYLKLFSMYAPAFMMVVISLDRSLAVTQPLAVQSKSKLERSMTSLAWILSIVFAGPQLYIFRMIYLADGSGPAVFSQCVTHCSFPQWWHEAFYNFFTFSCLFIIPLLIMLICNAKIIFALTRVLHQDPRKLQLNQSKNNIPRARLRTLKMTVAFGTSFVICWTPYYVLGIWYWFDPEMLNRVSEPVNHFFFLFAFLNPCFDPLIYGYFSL
Assay: Affinity for rat gonadotrophin releasing hormone (GnRH) receptor using HEK293 cells transfected with rat Gonadotropin-releasing hormone receptor
Format: cell-based
Bridge positions count the residues as written; N and C are the ends. Square brackets hold non-standard residues; d marks the D form. Peptide text beside a SMILES is read from it. dPhe(4-F) = N[C@H](Cc1ccc(F)cc1)C(=O)O; d2Nal = N[C@H](Cc1ccc2ccccc2c1)C(=O)O; ΔPro = O=C(O)[C@@H]1C=CCN1; Dap = NC[C@H](N)C(=O)O
Answers are plain numbers, as −log10 of the molar value.

Use the examples below as a reference point.
- compound: "CC(=O)N[C@H](Cc1ccc2ccccc2c1)C(=O)N[C@H](Cc1ccc(Cl)cc1)C(=O)N[C@@H]1CC(=O)NC[C@@H](C(=O)N2CCC[C@H]2C(=O)N[C@H](C)C(N)=O)NC(=O)[C@H](CC(C)C)NC(=O)[C@@H](Cc2ccc3ccccc3c2)NC(=O)[C@H](CCCN=C(N)N)NC(=O)[C@H](C)NC1=O"
  pKi: 7.68
- compound: "CC(=O)N[C@H]1CCC(=O)NCC(=O)NCC[C@@H]2NC(=O)[C@H](CC(=O)NC[C@@H](C(N)=O)NC(=O)[C@@H]3CCCN3C(=O)[C@H](CCCNC(=N)N)NC(=O)[C@H](CC(C)C)NC(=O)[C@@H](Cc3ccc4ccccc4c3)NC2=O)NC(=O)[C@@H](Cc2c[nH]c3ccccc23)NC(=O)[C@@H](Cc2ccc(Cl)cc2)NC1=O"
  pKi: 9.62
- compound: "CC(=O)N[C@H](Cc1ccc2ccccc2c1)C(=O)N[C@H](Cc1ccc(Cl)cc1)C(=O)N[C@@H]1CC(=O)NCCCC[C@@H](C(=O)N2CCC[C@H]2C(=O)N[C@H](C)C(N)=O)NC(=O)[C@H](CC(C)C)NC(=O)[C@@H](Cc2ccc3ccccc3c2)NC(=O)[C@H](CCCN=C(N)N)NC(=O)[C@H](C)NC1=O"
  pKi: 8.64

Kindly note: Gonadotropin-releasing hormone receptor (Rattus norvegicus, UniProt P30969), CC(=O)N1CC=C[C@H]1C(=O)N[C@H](Cc1ccc(F)cc1)C(=O)N[C@H](Cc1c[nH]c2ccccc12)C(=O)N[C@H]1CC(=O)NC[C@@H](C(N)=O)NC(=O)[C@@H]2CCCN2C(=O)[C@H](CCCN=C(N)N)NC(=O)[C@H](CC(C)C)NC(=O)[C@@H](Cc2ccc3ccccc3c2)NC(=O)[C@H](Cc2ccc(O)cc2)NC1=O (Ac-[ΔPro][dPhe(4-F)][dW]DY[d2Nal]LRP[Dap]-NH2; lactam 4-10) , pKi value reported: 9.57
